Reference source: ChEMBL document CHEMBL1151962

# run_description: Cmax in fasted nu/nu mouse at 10 mg/kg, po by LC/MS/MS analysis
# Format: ADME, organism-based
# Set-up: dose 10 mg/kg, route oral
# cond: in vivo
readout_label: Cmax
Respond with a number, then the unit of measure.

>>> reported("CNC(=O)c1nn(C)c2c1C(C)(C)Cc1cnc(Nc3ccc(CN(C)C)cc3)nc1-2.Cl")
"0.57 µM"
>>> reported("CNC(=O)c1nn(C)c2c1C(C)(C)Cc1cnc(Nc3ccc(N4CCN(C)CC4)cc3)nc1-2.Cl")
"2.35 µM"
>>> reported("CNC(=O)c1nn(C)c2c1C(C)(C)Cc1cnc(Nc3ccc(OC4CCN(C)CC4)cc3)nc1-2.Cl")
"0.6 µM"

// next item, Cmax requested
Reported Cmax for `CNC(=O)c1nn(C)c2c1C(C)(C)Cc1cnc(Nc3ccc(CN4CCN(C)CC4)cc3)nc1-2.Cl` was 0.77 µM

* * *

# run_description: Half life in fasted nu/nu mouse at 10 mg/kg, iv by LC/MS/MS analysis
# Type: ADME, organism-based
# Design: dose 10 mg/kg, route intravenous
# cond: in vivo
readout_label: half-life (h)
Enter your answer as a number in h; do not include the unit.

>>> reported("CNC(=O)c1nn(C)c2c1C(C)(C)Cc1cnc(Nc3ccc(CN(C)C)cc3)nc1-2.Cl")
1.4
>>> reported("CNC(=O)c1nn(C)c2c1C(C)(C)Cc1cnc(Nc3ccc(N4CCN(C)CC4)cc3)nc1-2.Cl")
2.6
>>> reported("CNC(=O)c1nn(C)c2c1C(C)(C)Cc1cnc(Nc3ccc(CN4CCN(C)CC4)cc3)nc1-2.Cl")
1.8

// next item, half-life requested
Reported half-life for `CNC(=O)c1nn(C)c2c1C(C)(C)Cc1cnc(Nc3ccc(OC4CCN(C)CC4)cc3)nc1-2.Cl` was 1.9

* * *

# system_under_test: Mitogen-activated protein kinase 14 (Homo sapiens)
# Sequence (Q16539 whole entry): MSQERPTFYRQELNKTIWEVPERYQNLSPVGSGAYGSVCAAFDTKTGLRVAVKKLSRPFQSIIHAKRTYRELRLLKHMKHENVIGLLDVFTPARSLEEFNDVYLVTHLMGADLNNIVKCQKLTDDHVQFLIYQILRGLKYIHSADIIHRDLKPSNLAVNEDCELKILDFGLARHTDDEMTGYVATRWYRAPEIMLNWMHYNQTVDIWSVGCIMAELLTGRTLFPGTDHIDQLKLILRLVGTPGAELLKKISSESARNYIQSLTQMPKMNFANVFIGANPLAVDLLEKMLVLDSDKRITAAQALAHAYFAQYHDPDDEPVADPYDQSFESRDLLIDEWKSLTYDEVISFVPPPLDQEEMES
# run_description: Inhibition of P38alpha
readout_label: IC50

I looked up `CNC(=O)c1nn(C)c2c1C(C)(C)Cc1cnc(Nc3ccc(N4CCN(C)CC4)cc3)nc1-2` and its IC50 for Mitogen-activated protein kinase 14 (Homo sapiens) was > 10 µM

* * *

# system_under_test: Vascular endothelial growth factor receptor 2 (Homo sapiens, UniProt P35968)
# Sequence (P35968 whole entry): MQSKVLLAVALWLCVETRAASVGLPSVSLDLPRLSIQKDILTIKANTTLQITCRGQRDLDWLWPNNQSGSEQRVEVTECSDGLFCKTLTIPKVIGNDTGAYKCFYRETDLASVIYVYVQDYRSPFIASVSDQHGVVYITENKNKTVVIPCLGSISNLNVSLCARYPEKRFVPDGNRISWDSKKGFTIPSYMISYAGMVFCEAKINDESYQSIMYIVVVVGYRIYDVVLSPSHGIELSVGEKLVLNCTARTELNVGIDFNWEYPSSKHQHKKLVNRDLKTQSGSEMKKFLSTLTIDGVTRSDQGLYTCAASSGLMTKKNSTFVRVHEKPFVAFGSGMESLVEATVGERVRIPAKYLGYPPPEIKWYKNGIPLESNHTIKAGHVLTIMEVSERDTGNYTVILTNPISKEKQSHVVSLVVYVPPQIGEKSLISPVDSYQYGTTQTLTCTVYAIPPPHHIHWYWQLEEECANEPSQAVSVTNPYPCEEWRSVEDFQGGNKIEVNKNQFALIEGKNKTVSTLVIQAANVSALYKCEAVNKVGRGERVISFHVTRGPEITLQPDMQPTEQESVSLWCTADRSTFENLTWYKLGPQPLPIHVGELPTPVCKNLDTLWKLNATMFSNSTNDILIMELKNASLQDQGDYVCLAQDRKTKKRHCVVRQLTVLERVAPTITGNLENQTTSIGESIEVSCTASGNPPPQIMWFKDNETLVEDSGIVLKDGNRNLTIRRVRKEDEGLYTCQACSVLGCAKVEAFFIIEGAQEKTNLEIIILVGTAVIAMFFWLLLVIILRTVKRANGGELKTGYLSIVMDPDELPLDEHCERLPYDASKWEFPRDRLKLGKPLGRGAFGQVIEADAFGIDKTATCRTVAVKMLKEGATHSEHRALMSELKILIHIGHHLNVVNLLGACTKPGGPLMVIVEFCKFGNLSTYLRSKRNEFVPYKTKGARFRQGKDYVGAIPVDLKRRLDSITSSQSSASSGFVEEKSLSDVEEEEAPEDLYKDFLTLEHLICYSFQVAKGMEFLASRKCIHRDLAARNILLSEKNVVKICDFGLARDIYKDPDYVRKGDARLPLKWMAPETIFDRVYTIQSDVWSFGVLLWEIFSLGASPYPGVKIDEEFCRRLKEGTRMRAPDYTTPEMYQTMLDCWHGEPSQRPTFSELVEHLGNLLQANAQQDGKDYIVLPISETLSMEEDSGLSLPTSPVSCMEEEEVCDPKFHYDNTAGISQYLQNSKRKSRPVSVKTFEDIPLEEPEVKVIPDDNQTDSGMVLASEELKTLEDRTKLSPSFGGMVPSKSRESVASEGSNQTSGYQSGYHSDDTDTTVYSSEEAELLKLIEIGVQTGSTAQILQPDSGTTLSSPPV
pIC50: −log10 of the molar value.
readout_label: pIC50

I looked up CNC(=O)c1nn(C)c2c1C(C)(C)Cc1cnc(Nc3ccc(N4CCN(C)CC4)cc3)nc1-2 [MILCICLIB] and its pIC50 for Vascular endothelial growth factor receptor 2 (Homo sapiens, UniProt P35968) was < 5.00

* * *

# system_under_test: Aurora kinase B (Homo sapiens, UniProt Q96GD4)
# Sequence (Q96GD4 whole entry): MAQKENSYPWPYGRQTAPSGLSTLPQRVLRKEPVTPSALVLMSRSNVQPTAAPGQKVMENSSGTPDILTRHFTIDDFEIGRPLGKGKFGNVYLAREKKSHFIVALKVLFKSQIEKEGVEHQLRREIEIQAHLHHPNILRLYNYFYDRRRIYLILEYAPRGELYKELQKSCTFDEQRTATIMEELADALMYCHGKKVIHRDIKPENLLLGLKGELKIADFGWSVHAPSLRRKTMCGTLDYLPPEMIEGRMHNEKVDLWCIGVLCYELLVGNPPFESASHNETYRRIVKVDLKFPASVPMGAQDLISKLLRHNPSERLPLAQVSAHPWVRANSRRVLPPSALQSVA
readout_label: IC50 (µM)
Enter your answer as a number in µM; do not include the unit.

I looked up CNC(=O)c1nn(C)c2c1C(C)(C)Cc1cnc(Nc3ccc(N4CCN(C)CC4)cc3)nc1-2 [MILCICLIB] and its IC50 for Aurora kinase B (Homo sapiens, UniProt Q96GD4) was 4.17

* * *

pIC50 values, listed per item
# system_under_test: Cyclin-dependent kinase 2 (Homo sapiens)
# run_description: Inhibition of CDK2/Cyclin A
Hey, just a heads up that pIC50 is the negative log base 10 of the concentration in molar.

Some entries whose results are on file:
>>> reported("Cn1nc(C(N)=O)c2c1-c1nc(Nc3ccccc3)ncc1CC2(C)C")
7.62
>>> reported("CNC(=O)c1nn(C)c2c1C(C)(C)Cc1cnc(Nc3cccc(N4CCN(C)CC4)c3)nc1-2")
7.51
>>> reported("CNC(=O)c1nn(C)c2c1C(C)(C)Cc1cnc(Nc3cccc(N(C)C)c3)nc1-2")
6.66

Reported pIC50 for `CNC(=O)c1nn(C)c2c1CCc1cnc(Nc3ccc(N4CCN(C)CC4)cc3)nc1-2` was 7.35

Reported pIC50 for `CNC(=O)c1nn(C)c2c1C(C)(C)Cc1cnc(Nc3ccc(N4CCOCC4)cc3)nc1-2` was 6.86
